# EXPERIMENT SUMMARY: Antioxidant activity assessed as hydrogen peroxide scavenging activity after 10 mins
# Assay type: functional
Threshold 50 µg/mL. IC50 below it: y. IC50 at it or above: n.

{"COMPOUND": "CSc1nc(-c2ccco2)c(C#N)c(=O)n1C", "CLASS NAME": "n"}
{"COMPOUND": "CCOC(=O)c1cnn(-c2nc(-c3ccco3)c(C#N)c(=O)n2C)c1N", "CLASS NAME": "n"}
{"COMPOUND": "CCOC(=O)c1cnn(-c2nc(-c3ccc(Cl)cc3)c(C#N)c(=O)n2C)c1N", "CLASS NAME": "n"}
{"COMPOUND": "CN(C)c1ccc(-c2nc(NN)n(C)c(=O)c2C#N)cc1", "CLASS NAME": "n"}
{"COMPOUND": "O=C1O[C@H]([C@@H](O)CO)C(O)=C1O [ASCORBIC ACID]", "CLASS NAME": "y"}
{"COMPOUND": "CCOC(=O)c1cnn(-c2nc(-c3cccc(OC)c3OC)c(C#N)c(=O)n2C)c1N", "CLASS NAME": "n"}
{"COMPOUND": "COc1ccc(-c2nc(SC)n(C)c(=O)c2C#N)cc1", "CLASS NAME": "y"}
{"COMPOUND": "Cn1c(NN)nc(-c2ccccc2Cl)c(C#N)c1=O", "CLASS NAME": "y"}
{"COMPOUND": "COc1cccc(-c2nc(NN)n(C)c(=O)c2C#N)c1OC", "CLASS NAME": "y"}
{"COMPOUND": "COc1cccc(-c2nc(SC)n(C)c(=O)c2C#N)c1OC", "CLASS NAME": "y"}

---

# System: Pseudomonas aeruginosa
# EXPERIMENT SUMMARY: Antimicrobial activity against Pseudomonas aeruginosa at 25 ug/ml by agar plate diffusion technique
# Format: functional
# SETUP CONDITIONS: read-out: IZ
compounds and their reported zone of inhibition at 25 µg/mL

{"SMILES": "CSc1nc(-c2ccccc2Cl)c(C#N)c(=O)n1C", "RESULT UNIT": "mm", "zone of inhibition at 25 µg/mL": 8.52}
{"SMILES": "COc1cccc(-c2nc(NN)n(C)c(=O)c2C#N)c1OC", "RESULT UNIT": "mm", "zone of inhibition at 25 µg/mL": 6.15}
{"SMILES": "CCOC(=O)c1cnn(-c2nc(-c3ccccc3O)c(C#N)c(=O)n2C)c1N", "RESULT UNIT": "mm", "zone of inhibition at 25 µg/mL": 10.2}
{"SMILES": "CCOC(=O)c1cnn(-c2nc(-c3ccccc3F)c(C#N)c(=O)n2C)c1N", "RESULT UNIT": "mm", "zone of inhibition at 25 µg/mL": 12.7}
{"SMILES": "Cn1c(NN)nc(-c2ccccc2O)c(C#N)c1=O", "RESULT UNIT": "mm", "zone of inhibition at 25 µg/mL": 7.27}
{"SMILES": "CCOC(=O)c1cnn(-c2nc(-c3cccs3)c(C#N)c(=O)n2C)c1N", "RESULT UNIT": "mm", "zone of inhibition at 25 µg/mL": 9.67}

---

Entries annotated with measured Time
# System: Metaphire posthuma
# EXPERIMENT SUMMARY: Anthelmintic activity against Pheretima posthuma assessed as time taken for complete parasite paralysis at 0.2% w/v
# Assay type: functional
MEASUREMENT KIND: Time (min)

{"SMILES": "CSc1nc(-c2ccccc2Cl)c(C#N)c(=O)n1C", "MEASUREMENT TARGET": "Metaphire posthuma", "MEASUREMENT KIND": "Time", "EXPERIMENTAL VALUE": 40.27}
{"SMILES": "CSc1nc(-c2ccccc2O)c(C#N)c(=O)n1C", "MEASUREMENT TARGET": "Metaphire posthuma", "MEASUREMENT KIND": "Time", "EXPERIMENTAL VALUE": 39.46}
{"SMILES": "Cn1c(NN)nc(-c2ccco2)c(C#N)c1=O", "MEASUREMENT TARGET": "Metaphire posthuma", "MEASUREMENT KIND": "Time", "EXPERIMENTAL VALUE": 40.73}
{"SMILES": "Cn1c(NN)nc(-c2ccccc2F)c(C#N)c1=O", "MEASUREMENT TARGET": "Metaphire posthuma", "MEASUREMENT KIND": "Time", "EXPERIMENTAL VALUE": 51.34}
{"SMILES": "CCOC(=O)c1cnn(-c2nc(-c3ccccc3O)c(C#N)c(=O)n2C)c1N", "MEASUREMENT TARGET": "Metaphire posthuma", "MEASUREMENT KIND": "Time", "EXPERIMENTAL VALUE": 40.03}
{"SMILES": "CCOC(=O)c1cnn(-c2nc(-c3ccc(OC)cc3)c(C#N)c(=O)n2C)c1N", "MEASUREMENT TARGET": "Metaphire posthuma", "MEASUREMENT KIND": "Time", "EXPERIMENTAL VALUE": 49.46}
{"SMILES": "CCOC(=O)c1cnn(-c2nc(-c3ccc(Cl)cc3)c(C#N)c(=O)n2C)c1N", "MEASUREMENT TARGET": "Metaphire posthuma", "MEASUREMENT KIND": "Time", "EXPERIMENTAL VALUE": 41.03}
{"SMILES": "CSc1nc(-c2ccc(Cl)cc2)c(C#N)c(=O)n1C", "MEASUREMENT TARGET": "Metaphire posthuma", "MEASUREMENT KIND": "Time", "EXPERIMENTAL VALUE": 39.29}

---

# System: Metaphire posthuma
# EXPERIMENT SUMMARY: Anthelmintic activity against Pheretima posthuma assessed as time taken for parasite death at 0.1% w/v
# Format: functional
Use 60 min as the dividing line for Time, with the line itself on the condition met side and lower values as condition not met.

{"SMILES": "Cn1c(NN)nc(-c2ccccc2F)c(C#N)c1=O", "CLASS NAME": "condition met"}
{"SMILES": "CCOC(=O)c1cnn(-c2nc(-c3cccc(O)c3O)c(C#N)c(=O)n2C)c1N", "CLASS NAME": "condition met"}
{"SMILES": "CSc1nc(-c2ccccc2F)c(C#N)c(=O)n1C", "CLASS NAME": "condition met"}
{"SMILES": "Cn1c(NN)nc(-c2ccccc2Cl)c(C#N)c1=O", "CLASS NAME": "condition met"}
{"SMILES": "CCOC(=O)c1cnn(-c2nc(-c3ccc(N(C)C)cc3)c(C#N)c(=O)n2C)c1N", "CLASS NAME": "condition not met"}
{"SMILES": "CSc1nc(-c2ccccc2Cl)c(C#N)c(=O)n1C", "CLASS NAME": "condition met"}
{"SMILES": "CSc1nc(-c2ccccc2O)c(C#N)c(=O)n1C", "CLASS NAME": "condition not met"}
{"SMILES": "Cn1c(NN)nc(-c2ccccc2O)c(C#N)c1=O", "CLASS NAME": "condition not met"}
{"SMILES": "COc1cccc(-c2nc(SC)n(C)c(=O)c2C#N)c1OC", "CLASS NAME": "condition met"}
{"SMILES": "COc1ccc(-c2nc(NN)n(C)c(=O)c2C#N)cc1", "CLASS NAME": "condition met"}
{"SMILES": "CCOC(=O)c1cnn(-c2nc(-c3ccccc3Cl)c(C#N)c(=O)n2C)c1N", "CLASS NAME": "condition met"}

---

Documented zone of inhibition at 50 µg/mL across a set of compounds
# System: Staphylococcus aureus
# EXPERIMENT SUMMARY: Antimicrobial activity against Staphylococcus aureus at 50 ug/ml by agar plate diffusion technique
# Type: functional
# SETUP CONDITIONS: read-out: IZ
MEASUREMENT KIND: zone of inhibition at 50 µg/mL (mm)

{"SMILES": "Cn1c(NN)nc(-c2ccc(Cl)cc2)c(C#N)c1=O", "EXPERIMENTAL VALUE": 15.5}
{"SMILES": "CSc1nc(-c2ccco2)c(C#N)c(=O)n1C", "EXPERIMENTAL VALUE": 9.12}
{"SMILES": "CSc1nc(-c2ccccc2Cl)c(C#N)c(=O)n1C", "EXPERIMENTAL VALUE": 12.3}
{"SMILES": "CCOC(=O)c1cnn(-c2nc(-c3ccccc3O)c(C#N)c(=O)n2C)c1N", "EXPERIMENTAL VALUE": 17.4}
{"SMILES": "CSc1nc(-c2ccc(Cl)cc2)c(C#N)c(=O)n1C", "EXPERIMENTAL VALUE": 11.7}
{"SMILES": "CSc1nc(-c2cccc(O)c2O)c(C#N)c(=O)n1C", "EXPERIMENTAL VALUE": 10.6}
{"SMILES": "CSc1nc(-c2cccs2)c(C#N)c(=O)n1C", "EXPERIMENTAL VALUE": 8.92}
{"SMILES": "CN[C@@H]1[C@H](O[C@H]2[C@H](O[C@H]3[C@H](O)[C@@H](O)[C@H](N=C(N)N)[C@@H](O)[C@@H]3N=C(N)N)O[C@@H](C)[C@]2(O)C=O)O[C@@H](CO)[C@H](O)[C@H]1O", "EXPERIMENTAL VALUE": 22.4}
{"SMILES": "Cn1c(NN)nc(-c2ccccc2F)c(C#N)c1=O", "EXPERIMENTAL VALUE": 17.3}
{"SMILES": "CSc1nc(-c2ccc(N(C)C)cc2)c(C#N)c(=O)n1C", "EXPERIMENTAL VALUE": 8.25}
{"SMILES": "CCOC(=O)c1cnn(-c2nc(-c3ccc(Cl)cc3)c(C#N)c(=O)n2C)c1N", "EXPERIMENTAL VALUE": 17.1}
{"SMILES": "CCOC(=O)c1cnn(-c2nc(-c3ccccc3Cl)c(C#N)c(=O)n2C)c1N", "EXPERIMENTAL VALUE": 18.3}
{"SMILES": "CCOC(=O)c1cnn(-c2nc(-c3ccco3)c(C#N)c(=O)n2C)c1N", "EXPERIMENTAL VALUE": 14.1}
{"SMILES": "Cn1c(NN)nc(-c2ccccc2Cl)c(C#N)c1=O", "EXPERIMENTAL VALUE": 15.9}
{"SMILES": "Cn1c(NN)nc(-c2ccco2)c(C#N)c1=O", "EXPERIMENTAL VALUE": 10.5}
{"SMILES": "CCOC(=O)c1cnn(-c2nc(-c3cccs3)c(C#N)c(=O)n2C)c1N", "EXPERIMENTAL VALUE": 12.2}
{"SMILES": "CSc1nc(-c2ccccc2F)c(C#N)c(=O)n1C", "EXPERIMENTAL VALUE": 15.3}
